Every entry's value here was drawn from PubChem BioAssay (NCI).

Listing: TGI of selected molecules
- Test system: SK-MEL-2 melanoma
- ASSAY_INFO: NCI tumour cell line growth inhibition, 48 h

Worked cases, answers included:
COc1cc(OC)c2c(c1)OC(c1cccnc1)C(c1ccccc1)C2=O (stereo not given) : > 100 µM
Cn1cc(C2=C(Nc3ccccc3)C(=O)NC2=O)c2ccccc21 : > 25 µM
CC(=O)OC1[C@H](OC(C)=O)C2=C(C)[C@@H](OC(C)=O)C[C@@]2(C(C)(C)O)[C@@H](OC(C)=O)[C@H]2[C@@]1(C)[C@@H](OC(C)=O)CC(OC(C)=O)[C@]21CO1 (stereo not given in full) : > 100 µM
COC(=O)Cc1cc(=O)[nH]c2c1C(=O)CCC2 : > 100 µM

Consider the record given below.
Tell me measured TGI for NC(Cc1ccc2nc3c4ccccc4c(=O)cc-3oc2c1)C(=O)O (stereo not given) please.
> 100 µM

----------
- Test system: UO-31 renal
- ASSAY_INFO: NCI tumour cell line growth inhibition, 48 h
Listing: TGI of selected molecules

Worked cases, answers included:
O=C(O)/C=C/c1ccc2c(c1)CC1(Cc3ccccc3C1)C2 : > 100 µM
CC1=Nc2c([nH]c(=S)[nH]c2=O)NC(c2c(Cl)cccc2Cl)C1 (stereo not given) : 10.2 µM
CC(C)=CC[C@]12CCN(C)[C@H]1N(S(=O)(=O)c1ccccc1)c1ccccc12 : > 100 µM
O=C1C(c2c(O)[nH]c3ccc(Br)cc23)=Nc2ccc(Br)cc21 : > 100 µM

Tell me measured TGI for CC(=O)NC(C=O)C(O[C@H](C)C(=O)NC(C)C(=O)NC(CCC(N)=O)C(=O)OCc1ccccc1)C(O)C(O)COC(=O)CCNc1c2ccccc2nc2cccc([N+](=O)[O-])c12 (stereo not given in full) please.
35.9 µM

----------
- Tested on: SK-MEL-28 melanoma
- ASSAY_INFO: NCI tumour cell line growth inhibition, 48 h
MEASURED_QUANTITY: TGI

Cc1nc2cc(Nc3ccccc3C(=O)O)ccc2s1 : > 100 µM
CNc1ncnc2c1nc(NC1CCCC1)n2C1OC(CO)C(O)C1O (stereo unspecified) : > 100 µM
C=C1C(=O)OC2CC(C)C3C4OC4C(O)C3(C)C(O)C12 (stereo unspecified) : 71.2 µM
C/C(=N\NC(=S)N1CCCCCC1)c1cccc2cccnc12 : > 66.4 µM
Cc1[nH]c2cc(F)ccc2c1-c1nc2c3cccnc3c3ncccc3c2[nH]1 : 1.72 µM

Tell me measured TGI for "CC(C)=CC(=O)c1[nH]c2ccccc2c1CC(=O)NCCc1cncn1C" please.
> 100 µM

----------
- System: NCI-H522 lung
- ASSAY_INFO: NCI tumour cell line growth inhibition, 48 h
MEASURED_QUANTITY: TGI

CC(C)=CC(=O)c1[nH]c2ccccc2c1CC(=O)NCCc1cncn1C : 84.6 µM
O=c1[nH]cnc2c(COCCO)c[nH]c12 : > 100 µM
COc1nc2ccc(COc3ccc(C(=O)O)cc3)cc2nc1OC : > 100 µM

Tell me measured TGI for "Cc1nc2ccccc2nc1N=Nc1ccccc1" please.
63.1 µM

Tell me measured TGI for "CCOC(=O)Nc1cc2ccccc2c(N=Nc2ccccc2)c1O" please.
> 100 µM

----------
- Tested on: ACHN renal
- ASSAY_INFO: NCI tumour cell line growth inhibition, 48 h
MEASURED_QUANTITY: GI50

Worked cases, answers included:
CC(=O)O[C@H]1CC[C@@]2(C)C(=C/C(=N/OCCN3CCCC3)[C@H]3[C@@H]4CC[C@H](OC(C)=O)[C@@]4(C)CC[C@@H]32)C1 : > 100 µM
CC(C)(C)OC(=O)NCc1cccc(N=C=S)c1 : 21.1 µM
CN(C)c1ccc(/C=N/S(=O)(=O)c2ccc(-n3c(-c4ccccc4)nc4c(Br)cc(Br)cc4c3=O)cc2)cc1 : 40.4 µM

Consider the record given below.
Tell me measured GI50 for "Cl.Fc1c[c-]c(-c2ccccn2)c(F)c1.[Pt].c1ccc([PH+](C[PH+](c2ccccc2)c2ccccc2)c2ccccc2)cc1" please.
0.218 µM

----------
- Test system: OVCAR-8 ovarian
- ASSAY_INFO: NCI tumour cell line growth inhibition, 48 h
MEASURED_QUANTITY: TGI (µM)
# output: bare number, implied unit µM

Worked cases, answers included:
Cc1cccc(N2C(=O)C3c4[nH]c5ccc(C)cc5c4C4CCC(C(C)(C)C)CC4C3C2=O)c1 (stereo not given) : 47.7
Clc1ccc(C[P+](c2ccccc2)(c2ccccc2)c2ccccc2)cc1Cl : 12.4
O=C1c2cccnc2C(=O)c2c1c(C(=O)OCCCN1CCCCC1)c1ccccn21 : 1.19

Consider the record given below.
Tell me measured TGI for "CCCCCCNCc1cc(C(C)(C)C)cc(CNCCCCCC)c1O" please.
3.37

----------
- Tested on: LOX IMVI melanoma
- ASSAY_INFO: NCI tumour cell line growth inhibition, 48 h
Listing: TGI of selected molecules

Worked cases, answers included:
COc1cc2c(/C=C3/C(=O)N(C)c4ccc(O)cc43)c(Cl)[nH]c2cc1C : 17.3 µM
c1ccc2c(c1)cc1n2CCc2c-1[nH]c1ccccc21 : > 10 µM
COc1nc2ccc(COc3ccc(C(=O)O)cc3)cc2nc1OC : > 100 µM

Tell me measured TGI for CCC1(CN(C)C)CC/C(=C\c2ccc(OC)c(OC)c2)C1=O (stereo unspecified) please.
> 100 µM

Tell me measured TGI for "c1ccc(OCc2nnc3n2N=C(c2ccccc2)CS3)cc1" please.
> 100 µM

Tell me measured TGI for O=C1N(Cc2ccccc2Cl)c2ccccc2C12NN=C(c1cccc(Cl)c1)S2 (stereo unspecified) please.
2.92 µM

Tell me measured TGI for "[N-]=[N+]=CC(=O)OCCCCl" please.
> 100 µM

Tell me measured TGI for "COc1ccc(C(=O)C#Cc2c[nH]c(=O)[nH]c2=O)cc1" please.
9.52 µM

Tell me measured TGI for CCC(C)C1=C(O)[N+]2([O-])Oc3ccc(-c4c(O)c(O)c(-c5ccc(OC(C)=O)cc5)c(OC(C)=O)c4OC(C)=O)cc3OC2(C(C)CC)C(=O)N1O (stereo unspecified) please.
> 50 µM

Tell me measured TGI for "O=C(/C(=C\I)c1ccccc1)c1ccccc1" please.
29.9 µM

Tell me measured TGI for NC(=O)CC(N=Cc1nc(-c2ccccc2)oc1O)C(=O)O (stereo unspecified) please.
> 100 µM

----------
- System: U251 CNS
- ASSAY_INFO: NCI tumour cell line growth inhibition, 48 h
Listing: TGI of selected compounds

CCOC(=O)c1c(SC(=O)c2ccc(OC)cc2)n(-c2ccccc2)c(=S)n(-c2ccccc2)c1=O : > 100 µM
Cc1[nH]c2cc(F)ccc2c1-c1nc2c3cccnc3c3ncccc3c2[nH]1 : 1.22 µM
Cc1cc(S(=O)(=O)Nc2n[nH]c(N)n2)c(Cl)cc1Cl : > 10 µM
CCCCOC1OC(COC(=O)C(C)C)C(OC(=O)C(C)C)C(O)C1OC1OC(C)C(OC(=O)CCC)C(OC(=O)C(C)C)C1O (centres undefined) : 26.4 µM
COCCOCCOCCOc1cccc2c1C(=O)c1cccc(OCCOCCOCCOC)c1C2=O : > 100 µM
CN(CCCCCl)P(=O)(OCc1ccc([N+](=O)[O-])o1)OCC1OC(n2cnc([N+](=O)[O-])c2N)C(O)C1O (centres undefined) : > 100 µM

Tell me measured TGI for "O=c1[nH]c(=O)n(COCc2ccccc2)cc1Nc1ccc(Br)cc1" please.
> 100 µM

Tell me measured TGI for O=C1CSC(c2cccc(Cl)c2)N1c1ccc(-c2ccc(-n3c(-c4ccccc4)nc4ccccc4c3=O)cc2)cc1 (centres undefined) please.
> 100 µM

Tell me measured TGI for COc1cc(C(C)O)c[n+](CCC2CNc3ccccc32)c1 (centres undefined) please.
> 100 µM

Tell me measured TGI for "O=[N+]([O-])c1cc2no[n+]([O-])c2cc1N1CCCCC1" please.
20.2 µM

Tell me measured TGI for CNc1ncnc2c1nc(NC1CCCC1)n2C1OC(CO)C(O)C1O (centres undefined) please.
> 100 µM

----------
- System: U251 CNS
- ASSAY_INFO: NCI tumour cell line growth inhibition, 48 h
MEASURED_QUANTITY: TGI

Worked cases, answers included:
COc1ccccc1C1(c2c(OC)c(=O)c2=O)SCCCS1 : > 100 µM
C#CC(O)/C=C/CCCCCCC#CC/C=C\CC#CCCCCCCCCC(O)C#C (stereo unspecified) : > 55.8 µM
COc1ccccc1C(=O)NCC1CCCN2CCCCC12 (stereo unspecified) : > 100 µM
NC(Cc1ccc2nc3c4ccccc4c(=O)cc-3oc2c1)C(=O)O (stereo unspecified) : > 100 µM
CN(CCC(=O)/C(=C\c1ccccc1)c1ccc(Cl)cc1)Cc1ccccc1 : 4.35 µM

Tell me measured TGI for "CCSC[C@@H]1C[C@](O)(c2ccc(F)cc2)[C@@H](c2ccc(F)cc2)O1" please.
31.7 µM
